assay: NCI Yeast Anticancer Drug Screen. Data for the mlh1 rad18 strain (AID 175); conditions: S. cerevisiae mlh1 rad18 strain growth inhibition; at 50.0 µM
Compounds without any hit were thinned out: in the full panel of roughly 79,000, 15% have a hit. Active and inactive are the calls of the source. Cut-off read from the data, not from the text of the source: active = growth inhibition above about 70%; inactive = the rest.
Outcomes you can answer with include only these: 1.0 for active, 0.0 for inactive

Request: Tell me the assay call for `O/N=C/c1cc(Cl)cc(Cl)c1O` please.
Result: 1.0

Request: Could you please tell me the result logged for `CC(C)(Sc1cc(Cl)c(Cl)c(Cl)c1)C(=O)OCCN1CCOCC1` in this assay?
Result: 1.0

Request: For this compound, state the assay outcome: `COC(=O)c1cc(-c2ccccc2)[nH]c(=O)c1C#N`
Result: 0.0

Request: Field: outcome | Entry: `O=C1Nc2ccccc2/C1=N\N=c1/scc(-c2ccccc2)n1-c1ccccc1`
Result: 1.0

Request: Call for entry `Nc1nc(N)c2c(ccc3c2ccn3Cc2cccc([N+](=O)[O-])c2)n1` :
Result: 0.0

Request: # fetch the recorded call for CCc1ccccc1NC(=O)C1=C(C)NC(C)=C(C(=O)Nc2c(CC)cccc2CC)C1c1ccc2c(c1)OCO2 (stereo not drawn) here
Result: 1.0

Request: What classification did CC(=O)Oc1cc2c(cc1OC(C)=O)OCC(c1ccc(C)cc1)C2 (stereo not drawn) end up with in this test?
Result: 1.0

Request: Status in this test for `O/N=C(/C[n+]1csc2ccccc21)c1ccccc1` ?
Result: 0.0

Request: Could you kindly confirm the outcome this assay logged for `O=c1oc2cc(N=Cc3ccc4c(c3)OCO4)ccc2c2ccccc12` ?
Result: 0.0

Request: Short answer needed: outcome of this test for `O=C(Nc1ccc(C(=O)c2ccccc2)cc1)Nc1ccc(Cl)c(Cl)c1` ?
Result: 1.0

Request: # outcome recorded in this test, key = O=C(CNC(=O)C(CSCc1ccccc1)NC(=O)OCc1ccccc1)Oc1c(Cl)c(Cl)c(Cl)c(Cl)c1Cl (stereo not drawn)
Result: 0.0

Request: What outcome does the record of this test show for CC(CO)[C@H]1OC(=O)C=C2[C@@]13O[C@@H]3[C@H]1OC(=O)[C@@]3(C)[C@H]4O[C@H]4C[C@@]2(C)[C@@H]13 (stereo partly drawn) ?
Result: 1.0

Request: Could you please tell me the result logged for `CC/C(=C(\CC)c1ccc(O)c(CN(C)C)c1)c1ccc(OC)cc1` in this assay?
Result: 1.0

Request: Please state the recorded outcome for this compound: `Clc1ccc(-c2nc3ccc(Cl)cc3[nH]2)cc1`
Result: 0.0

Request: Look up the recorded call for `N#CSCCSC#N` in this test.
Result: 1.0

Request: Test call, this compound: `c1ccc(CCc2c[nH]c3ccccc23)cc1`
Result: 0.0

Request: Outcome? `CC(=O)Nc1cccc2ccc(C)cc12`
Result: 0.0

Request: // outcome(item) with item = `S=c1[nH]c2ccc(Cl)cc2s1`
Result: 1.0

Request: Short answer needed: outcome of this test for CCCCC(CCc1ccccc1)(C(=O)O)c1ccccc1 (stereo not drawn) ?
Result: 1.0

Request: Any idea what this test logged for `CC#Cc1cc2c(cc1O)CC[C@@H]1[C@@H]2CC[C@]2(C)[C@@H](O)CC[C@@H]12` ?
Result: 1.0

Request: Hi, do you know how `O=C(CCN1CCCCC1)/C(=C\c1ccc(Cl)cc1)c1ccccc1` came out in this test?
Result: 1.0

Request: Hello, I am checking results. What call was entered for `N=C(N)c1ccc(N=Nc2cc(/C=C/c3ccccc3)ccc2O)cc1` ?
Result: 1.0

Request: Any idea what this test logged for `Cc1cc(N)c2c(c1O)C(=O)c1ccccc1C2=O` ?
Result: 0.0
